// IC50 lookup, one value per entry
molecular target: FLuc-C-HiBiT (Photinus pyralis, UniProt P08659); construct: firefly luciferase with C-terminal HiBiT tag, E. coli expressed; assay: biochemical; conditions: enzyme activity, 10 uM ATP; read-out: IC50 or SDR50 (mM) / FLuc E

Recorded results for 6 compounds are shown here.
{"Compound": "COc1ccc(CN(C(=O)c2cc3ccccc3oc2=O)C2CC[S+](=O)([O-])C2)cc1OC (stereo not shown) [NCGC00100996-01]", "IC50": "> 0.03 mM"}
{"Compound": "COCC(=O)N1CCc2nc(C)nc(-c3ccc(OC)cc3)c2C1 [NCGC00480441-01]", "IC50": "> 0.03 mM"}
{"Compound": "Cc1ccccc1CN1CC[C@H](c2nc3ccccc3s2)C1 [NCGC00391192-01]", "IC50": "0.018 mM"}
{"Compound": "CCc1cccc(NC(=O)c2cc(-c3ccccc3)n[nH]2)c1 [NCGC00125661-01]", "IC50": "0.00279 mM"}
{"Compound": "COc1ccc(-c2cc(N3CCCC(NC(=O)c4cccc5[nH]ccc45)C3)[nH]n2)cc1 (stereo not shown) [NCGC00437654-01]", "IC50": "0.014 mM"}
{"Compound": "CCN1CCN(C(=O)Cn2c(C)ccc(NC(=O)Nc3ccc(C)cc3)c2=O)CC1 [NCGC00430774-01]", "IC50": "0.00495 mM"}

Attention now turns to another entry.
Look up IC50 for this compound: O=C1NCCCCCCN(C(=O)Nc2ccc3c(c2)OCCO3)[C@H]2CCC[C@@H]12 [NCGC00465105-01]
0.00351 mM

====

molecular target: P. pyralis FLuc (Photinus pyralis); assay: FLuc enzymatic luminescence assay, P. pyralis FLuc; assay type: biochemical; conditions: FLuc enzymatic assay; Clade S follow-up
Sequence (P08659 whole entry): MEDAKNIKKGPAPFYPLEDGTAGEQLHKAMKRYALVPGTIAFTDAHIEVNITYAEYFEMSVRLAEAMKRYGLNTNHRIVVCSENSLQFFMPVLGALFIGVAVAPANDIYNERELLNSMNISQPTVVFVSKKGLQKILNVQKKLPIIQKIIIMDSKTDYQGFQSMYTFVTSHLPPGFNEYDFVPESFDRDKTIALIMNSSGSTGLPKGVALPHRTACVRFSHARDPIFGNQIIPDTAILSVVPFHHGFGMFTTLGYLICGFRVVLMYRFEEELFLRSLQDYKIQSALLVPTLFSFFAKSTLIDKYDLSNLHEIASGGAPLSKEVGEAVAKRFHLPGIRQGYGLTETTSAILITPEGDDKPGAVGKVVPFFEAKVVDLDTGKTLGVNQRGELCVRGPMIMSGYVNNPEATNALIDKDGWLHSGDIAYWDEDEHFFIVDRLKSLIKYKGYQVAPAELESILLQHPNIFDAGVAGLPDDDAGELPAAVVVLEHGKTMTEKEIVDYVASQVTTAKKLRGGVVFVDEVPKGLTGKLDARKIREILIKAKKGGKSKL
Measured Endpoint: Efficacy (%) FLuc E
All answers are understood in %, so give the number only.

{"Compound": "Cc1ccc(C2Cn3cnc(C(=O)N4CCC(C(=O)NCCc5ccccc5)CC4)c3CO2)cc1 (stereo not drawn)", "Value Units": "%", "Efficacy (%) FLuc E": -32.41}
{"Compound": "Cc1ccc(CNC(=O)C2CCN(C(=O)c3ncn4c3COC(c3ccc(Cl)cc3)C4)CC2)cc1 (stereo not drawn)", "Value Units": "%", "Efficacy (%) FLuc E": -21.67}

What does the record list as Efficacy (%) FLuc E for O=C(NCCc1cccs1)C1CCN(C(=O)c2ncn3c2COC(c2ccccc2)C3)CC1 (stereo not drawn) ?
-97.05

One more compound: O=C(NCc1ccc(F)cc1Cl)C1CCN(C(=O)c2ncn3c2COC(c2ccccc2)C3)CC1 (stereo not drawn)
-100.38

// same read-out, input: O=C(NCCC1=CCCCC1)C1CCN(C(=O)c2ncn3c2COC(c2ccc(F)cc2)C3)CC1 (stereo not drawn)
-41.16

Record: O=C(NCCc1ccccc1)C1CCN(C(=O)c2ncn3c2COC(c2ccc(Cl)cc2)C3)CC1 (stereo not drawn)
-25.47

====

target: FLuc-C-HiBiT (Photinus pyralis, UniProt P08659); construct: firefly luciferase with C-terminal HiBiT tag, E. coli expressed; test: biochemical; details: enzyme activity, 10 uM ATP; read-out: IC50 or SDR50 (mM) / FLuc E
Measured Endpoint: IC50 (mM)
Write down the numeric answer in mM and omit the unit.

# annotated cases, reported IC50 shown
{"Compound": "Cc1ccc(-n2nc(C)c([C@@H]3C=C[C@@H](NC(=O)Nc4ccc(Cl)cc4)C3)c2C)cc1Cl", "Number": 0.00989}
{"Compound": "CC(C)c1cnc(N2CCC(COc3ccc4c(cnn4CCC(=O)O)c3)CC2)nc1", "Number": 0.0202}
{"Compound": "O=C(NCc1cccs1)C1CCN(C(=O)c2ncn3c2COC(c2ccccc2)C3)CC1 (stereo not shown)", "Number": 0.00248}
{"Compound": "COc1ccc(-c2ncc3c(n2)OCCN(Cc2ccccc2)C3=O)cc1", "Number": 0.018}

Which IC50 reading was recorded for the compound COc1ccc(C(=O)Nc2cc(-c3nc4ccccc4s3)ccc2OC)cc1 ?
0.00989

Would you kindly repeat that for Cc1c(-c2ccccc2F)[nH]c2ccc(CNC(=O)C3CCCN(C(N)=O)C3)cc12 (stereo not shown) ?
0.00556

Lookup COc1ccc(NC(=O)Cn2c(SCc3ccc(C)cc3)nc3cccnc32)cc1OC
0.0007

Try this compound too: COc1ccc(C(=O)NCCn2cccc2-c2nc(-c3ccccc3)no2)cc1
0.00279

====

molecular target: FLuc-C-HiBiT (Photinus pyralis, UniProt P08659); construct: firefly luciferase with C-terminal HiBiT tag, E. coli expressed; assay: biochemical; details: enzyme activity, 10 uM ATP; read-out: IC50 or SDR50 (mM) / FLuc E
Measured Endpoint: log10 IC50 (log10 of the value in mM)
Remember, log10 of IC50, in mM.

Solved cases (4 shown):
{"Molecule": "COc1ccc(-c2nc(C)c(CCNC(=O)c3cccs3)s2)cc1 [NCGC00135787-01]", "Target System": "FLuc-C-HiBiT (Photinus pyralis, UniProt P08659)", "log10 IC50": -1.95}
{"Molecule": "COc1ccc(OCC(=O)Nc2cccc(-c3nc4ccccc4s3)c2C)cc1 [NCGC00118972-01]", "Target System": "FLuc-C-HiBiT (Photinus pyralis, UniProt P08659)", "log10 IC50": -2.11}
{"Molecule": "OCC1CCN(c2ncnc3c2cnn3-c2ccccc2)CC1 [NCGC00608116-01]", "Target System": "FLuc-C-HiBiT (Photinus pyralis, UniProt P08659)", "log10 IC50": -1.91}
{"Molecule": "CCc1noc(-c2nc(-c3ccc4c(c3)OCO4)no2)n1 [NCGC00450064-01]", "Target System": "FLuc-C-HiBiT (Photinus pyralis, UniProt P08659)", "log10 IC50": -2.00}

Look up log10 IC50: CCOC(=O)c1ccc(NC(=O)c2nsc3ccccc23)cc1 [NCGC00113675-01]
-2.45

Next entry: COc1ccc(-c2cc(N3CCCC(NC(=O)c4c[nH]c5ccccc45)C3)[nH]n2)cc1 (stereo not drawn) [NCGC00437686-01]
-1.95

Continue with O=C(Nc1nc2c(F)cc(F)cc2s1)c1ccc2c(c1)OCCO2 [NCGC00134168-01]
-2.75

Request: COCCNC(=O)[C@@H](C)C1CC[C@@]2(C)Cc3sc(CSc4ccccc4)nc3[C@@H](C)[C@@H]2[C@H]1O (stereo partly drawn) [NCGC00391430-01]
-1.95

Then what about the molecule CSc1ccc(-c2ccc3c(c2)C(=O)N2CC[C@H](NC(=O)c4cccs4)[C@H]2C(=O)N3)cc1 [NCGC00393756-01] ?
-1.91

Next molecule: COc1cccc(F)c1-c1ccc(COc2ccc3c(cnn3CCC(=O)O)c2)cc1 [NCGC00418057-01]
-1.69

Here is the next molecule: Cc1ccc(NC(=O)N2CCCC(c3noc(COc4ccccc4)n3)C2)cc1C (stereo not drawn) [NCGC00453299-01]
-2.06

What would you report for Cc1ccc2nc(-c3ccc(NC(=O)C(F)(F)F)cc3)sc2c1 [NCGC00100068-01] ?
-3.11

Try the molecule COc1ccccc1CN1CCc2nc(C(=O)Nc3ccccc3)oc2CC1 [NCGC00413298-01]
-1.79

Do the same for O=C(Nc1cccc(F)c1)Nc1ccc2n(c1=O)C[C@H]1C[C@@H]2CN(C(=O)c2ccc(F)cc2)C1 [NCGC00398007-01] please
-2.15

====

ABL1 KGP pIC50 listing for selected compounds.
target: ABL1-N-HiBiT kinase domain (Homo sapiens); assay: ABL1 peptide phosphorylation, Kinase-Glo Plus (KGP) assay, ABL1-N-HiBiT; assay type: biochemical; parameters: containing amino acid residues Asp233-Ser500; His10 (N); made in house; host or cells: E. coli BL21(DE3); conditions: ABL1, Kinase-Glo Plus (KGP); heatmap data, 128 kinase inhibitors
Sequence (P00519 233-500): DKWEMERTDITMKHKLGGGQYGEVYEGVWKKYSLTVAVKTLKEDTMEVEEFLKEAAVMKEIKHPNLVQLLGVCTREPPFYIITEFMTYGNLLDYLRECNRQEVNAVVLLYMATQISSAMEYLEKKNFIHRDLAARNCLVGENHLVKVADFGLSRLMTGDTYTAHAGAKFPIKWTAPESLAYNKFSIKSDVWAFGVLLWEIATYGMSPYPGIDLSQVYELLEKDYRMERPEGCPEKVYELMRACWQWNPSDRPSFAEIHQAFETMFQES
Where a name gives a salt, the structure may show the parent alone.
Give the value as a plain number.

{"Compound": "COc1cc2ncnc(Oc3cccc(NC(=O)Nc4cc(C(C)(C)C(F)(F)F)on4)c3)c2cc1OC [CEP-32496]", "Measured Endpoint": "ABL1 KGP pIC50", "Number": 5.59}
{"Compound": "COc1cc(N2CCOCC2)ccc1Nc1ncc(Cl)c(Nc2ccccc2NS(C)(=O)=O)n1 [CZC 54252 HCl]", "Measured Endpoint": "ABL1 KGP pIC50", "Number": 5.38}
{"Compound": "CC[C@@](C)(Nc1ccnc(-c2c[nH]c3ncccc23)n1)C(=O)NCC(F)(F)F [Decernotinib]", "Measured Endpoint": "ABL1 KGP pIC50", "Number": 5.13}
{"Compound": "Cc1nc(NC(=O)N2CCC[C@H]2C(N)=O)sc1-c1ccnc(C(C)(C)C(F)(F)F)c1 [BYL-719]", "Measured Endpoint": "ABL1 KGP pIC50", "Number": 5.30}

Reported ABL1 KGP pIC50, compound COc1ccccc1-c1c[nH]c2ncc(-c3cncc(C(=O)N(C)C)c3)cc12 [PPY A] : ____
7.53

Let us now turn to COc1cc2nccc(Oc3ccc(NC(=O)Nc4ccc(F)cc4F)c(F)c3)c2cc1OC [KI-8751]
5.68

Likewise for C[C@@H](NC(=O)c1ncnc(N)c1Cl)c1ncc(C(=O)Nc2cc(C(F)(F)F)c(Cl)cn2)s1 [MLN 2480] ?
5.20

Okay, and CN1CCN(Cc2ccc(-c3cnc4[nH]cc(-c5ccc6[nH]ccc6c5)c4c3)cc2)CC1 [URMC-099] ?
5.25

Cool, now N[C@H]1CC[C@H](Nc2nc(Nc3ccc(C(=O)N4CCCCC4)cc3)c3ncn(-c4cccc(F)c4)c3n2)CC1 [Purfalcamine]
5.42

Try COc1cc2ncnc(-n3nc(-c4ccccn4)nc3N)c2cc1OC [CP-466722] next.
5.41

And the next one, Cc1ccc(-n2nc(C(C)(C)C)cc2NC(=O)NCc2cc(F)ccc2Oc2ccc3c(cnn3CCO)c2)cc1 [Pexmetinib] ?
5.87

Queued: Cn1cc(-c2cc3c(N4CCN(c5ncc([C@@](C)(N)c6ccc(F)cc6)cn5)CC4)ncnn3c2)cn1 [Avapritinib]
4.91

How about CN1CCN(c2ccc(Nc3ncc4cc(C#N)c(=O)n(C5CCCC5)c4n3)cc2)CC1 [ON-123300] ?
5.62

Another compound: COc1cc(N2CCC(N3CCN(C)CC3)CC2)ccc1Nc1ncc(Cl)c(Nc2ccccc2P(C)(C)=O)n1 [Brigatinib]
5.05
